- experimental-target: IRAK4 (Homo sapiens, UniProt Q9NWZ3)
- Construct: Degradation of IRAK4 in OCI-LY10 was quantitatively measured using Meso Scale Discovery technology; endogenous in cells; host or cells: OCI-LY10
- Sequence (Q9NWZ3 whole entry): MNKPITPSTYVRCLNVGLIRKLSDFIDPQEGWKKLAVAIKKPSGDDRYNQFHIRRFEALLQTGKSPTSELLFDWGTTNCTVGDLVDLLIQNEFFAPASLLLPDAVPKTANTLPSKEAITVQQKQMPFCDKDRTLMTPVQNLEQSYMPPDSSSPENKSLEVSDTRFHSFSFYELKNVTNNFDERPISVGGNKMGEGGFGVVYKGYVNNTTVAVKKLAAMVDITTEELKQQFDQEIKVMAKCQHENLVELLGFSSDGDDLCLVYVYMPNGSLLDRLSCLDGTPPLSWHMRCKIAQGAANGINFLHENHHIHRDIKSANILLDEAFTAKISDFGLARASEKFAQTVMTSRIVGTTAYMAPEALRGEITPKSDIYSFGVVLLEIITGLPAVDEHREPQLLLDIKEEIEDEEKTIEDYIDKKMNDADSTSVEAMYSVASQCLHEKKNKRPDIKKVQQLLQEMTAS
- test-method-notes: IRAK4 MSD Degradation in OCI-LY10
- Type: cell-based
- test-settings: OCI-LY10 cells, 4 hrs incubation, MSD; read-out: IRAK4 degradation in OCI-LY10 at 4 hrs: DC50
assay-readout: DC50

Previously resolved entries follow.
{"molecule": "Cn1c(=O)n(C2CCC(=O)NC2=O)c2cccc([C@H]3CCN(C[C@H]4CC[C@H](n5cc6cc(NC(=O)c7cccc(C(F)F)n7)ccc6n5)CC4)C[C@@H]3F)c21 (stereo partly drawn) [I-630]", "DC50": "> 200 nM"}
{"molecule": "Cn1c(=O)n(C2CCC(=O)NC2=O)c2cccc(C#CCN3CCN(C[C@H]4CC[C@H](n5cc(NC(=O)c6cnn7ccc([C@@H]8CCOC8)nc67)c(C(F)F)n5)CC4)CC3)c21 (stereo partly drawn) [I-353]", "DC50": "> 200 nM"}

Field: next molecule
Find the measured DC50 of Cc1cccc(C(=O)Nc2cc3cn([C@H]4CC[C@H](CN5CCC(c6cccc7c6n(C)c(=O)n7C6CCC(=O)NC6=O)C(F)(F)C5)CC4)nc3c(=O)n2C)n1 (stereo partly drawn) [I-772] and report it.
> 200 nM

These entries and their values trace back to patent US12091411B2.
